Just for reference, BigSolDB 2.1 is where these values come from.

run.conditions: in ethyl acetate, 298.15 K
quantity.kind: solubility (mole fraction)
Answers are plain numbers.

I'd like to know its solubility (mole fraction). The compound in question is O=P(O)(O)c1ccccc1 0.00755

---

run.conditions: in chloroform, 308.15 K
quantity.kind: solubility (mole fraction)
Answers are plain numbers.

I'd like to know its solubility (mole fraction). The molecule in question is O=P(O)(O)c1ccccc1 0.00257

---

run.conditions: in chloroform, 298.15 K
quantity.kind: solubility (mole fraction)
Answers are plain numbers.

I'd like to know its solubility (mole fraction). The compound in question is O=P(O)(O)c1ccccc1 0.00164

---

run.conditions: in acetone, 288.15 K
quantity.kind: solubility (mole fraction)
Numbers only.

I'd like to know its solubility (mole fraction). The compound in question is O=P(O)(O)c1ccccc1 0.136
